Cited source for all entries: paper PMC11755336

The entries below come with measured pIC50 values attached.
- target-or-system: MAO-A (Homo sapiens)
- Sequence (P21397 whole entry): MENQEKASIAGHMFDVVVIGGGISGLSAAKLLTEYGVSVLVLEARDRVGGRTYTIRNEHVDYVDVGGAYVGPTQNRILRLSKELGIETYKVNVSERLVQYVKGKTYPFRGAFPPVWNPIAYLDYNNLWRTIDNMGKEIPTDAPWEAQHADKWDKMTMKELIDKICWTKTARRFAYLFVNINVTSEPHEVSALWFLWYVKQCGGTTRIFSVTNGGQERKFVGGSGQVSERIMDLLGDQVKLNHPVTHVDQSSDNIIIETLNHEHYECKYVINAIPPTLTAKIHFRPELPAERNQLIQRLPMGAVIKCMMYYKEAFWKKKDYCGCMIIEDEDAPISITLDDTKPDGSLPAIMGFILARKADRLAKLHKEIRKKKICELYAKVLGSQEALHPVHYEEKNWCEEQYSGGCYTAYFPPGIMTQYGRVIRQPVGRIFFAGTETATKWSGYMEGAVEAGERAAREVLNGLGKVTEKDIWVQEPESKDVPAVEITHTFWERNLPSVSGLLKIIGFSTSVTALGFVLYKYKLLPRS
// field semantics: pIC50 = negative decimal log of concentration (mol/L)

Please give the measured pIC50 for this compound: `C=CCc1ccc(OC)c(OC)c1`
4.02

Please give the measured pIC50 for this compound: `C=CCc1cc(OC)c(OC)c(OC)c1`
4.21

Please give the measured pIC50 for this compound: `C=CCc1ccc(OC)cc1`
3.84

----------
- target-or-system: AChE (Homo sapiens, UniProt P22303)
- experiment: biochemical
- Format: biochemical
The entries below come with measured pIC50 values attached.
// field semantics: pIC50 = negative decimal log of concentration (mol/L)

Reference set, count: 2
Please give the measured pIC50 for this molecule: C/C=C/c1ccc(OC)c(OC)c1 [Methyl isoeugenol]
5.01

Please give the measured pIC50 for this molecule: CC(C)(C)c1ccc(O)c(C(C)(C)C)c1 [2,4-Di-tert-butylphenol]
5.35

Next:
Please give the measured pIC50 for this molecule: CC12CCC(CC1=O)C2(C)C (stereo not drawn) [Camphor]
5.21
